The measured values listed here are drawn from patent CN116082499A.

The binders listed here are annotated with their OD (450nm, 参考630nm).
molecular target: T1, DENV抗原 (DENV阳性血清) (dengue virus (DENV), serotype ); assay: sandwich ELISA, antibody at 0.78125 ng/ml captured on goat anti-mouse IgG, DENV-positive serum, HRP-labelled DENV mAb
T1 construct: also called DENV antigen in DENV-positive serum

binder	measuredResult
DF-5M32RMb4 (antibody, mouse IgG1, kappa, V domains shown, also called DF-8F13RMb4) VH: QVQLQQSGAELARPGASVKLSCKASGYTFINYWMQWVKQRPGQGLEWIGAIYPGDGDTRYTQNFKGKAALTADKSSSTAYMQLSSLASEDSAVYYCATGTEGLLDYWGQGTSVTVSS VL: DAVMTQTPLTLSVLIGQPASLSCKSSQSLLESDGKTYLNWLFQRPGQSPKRLIYLVSKLESGVPDRFTGSGSGTEFTLKISRVEAEDLGVYYCWQATHHPLTFGTGTNLELKR	0.482 OD
DF-5M32RMb1 (antibody, mouse IgG1, kappa, V domains shown, also called Anti-DF 5M32; Anti-DF 5M32单克隆抗体 (recombinant)) VH: QVQLQQSGAELARPGASVKLSCKASGYTFINYWMQWVKQRPGQGLEWIGAIYPGDGDTRYTQNFKGKAALTADKSSSTAYMQLSSLASEDSAVYYCATGTEGILDYWGQGTSVTVSS VL: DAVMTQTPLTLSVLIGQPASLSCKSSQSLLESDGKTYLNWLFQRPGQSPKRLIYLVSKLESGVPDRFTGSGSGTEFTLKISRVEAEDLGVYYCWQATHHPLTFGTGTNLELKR	0.489 OD
DF-5M32RMb3 (antibody, mouse IgG1, kappa, V domains shown, also called DF-8F13RMb3) VH: QVQLQQSGAELARPGASVKLSCKASGYTFLNYWMQWVKQRPGQGLEWIGAIYPGDGDTRYTQNFKGKAALTADKSSSTAYMQLSSLASEDSAVYYCATGTEGILDYWGQGTSVTVSS VL: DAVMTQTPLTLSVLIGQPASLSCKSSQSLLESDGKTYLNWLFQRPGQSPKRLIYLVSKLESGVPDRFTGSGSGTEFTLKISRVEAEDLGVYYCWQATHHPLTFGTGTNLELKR	0.479 OD

Which OD (450nm, 参考630nm) value belongs to DF-5M32RMb2 (antibody, mouse IgG1, kappa, V domains shown, also called DF-8F13RMb2) VH: QVQLQQSGAELARPGASVKLSCKASGYTFLNYWMQWVKQRPGQGLEWIGAIYPGDGDTRYTQNFKGKAALTADKSSSTAYMQLSSLASEDSAVYYCATGTEGLLDYWGQGTSVTVSS VL: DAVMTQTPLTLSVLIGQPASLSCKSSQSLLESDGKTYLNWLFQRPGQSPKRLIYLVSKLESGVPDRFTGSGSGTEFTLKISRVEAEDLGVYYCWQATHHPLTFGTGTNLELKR ?
0.471 OD
